Molecular target: sortilin (Homo sapiens)
Construct: The extracellular Vps10p domain of sortilin was overexpressed in HEK293F cells and purified from the medium
Sequence (Q99523 78-755 limits assumed): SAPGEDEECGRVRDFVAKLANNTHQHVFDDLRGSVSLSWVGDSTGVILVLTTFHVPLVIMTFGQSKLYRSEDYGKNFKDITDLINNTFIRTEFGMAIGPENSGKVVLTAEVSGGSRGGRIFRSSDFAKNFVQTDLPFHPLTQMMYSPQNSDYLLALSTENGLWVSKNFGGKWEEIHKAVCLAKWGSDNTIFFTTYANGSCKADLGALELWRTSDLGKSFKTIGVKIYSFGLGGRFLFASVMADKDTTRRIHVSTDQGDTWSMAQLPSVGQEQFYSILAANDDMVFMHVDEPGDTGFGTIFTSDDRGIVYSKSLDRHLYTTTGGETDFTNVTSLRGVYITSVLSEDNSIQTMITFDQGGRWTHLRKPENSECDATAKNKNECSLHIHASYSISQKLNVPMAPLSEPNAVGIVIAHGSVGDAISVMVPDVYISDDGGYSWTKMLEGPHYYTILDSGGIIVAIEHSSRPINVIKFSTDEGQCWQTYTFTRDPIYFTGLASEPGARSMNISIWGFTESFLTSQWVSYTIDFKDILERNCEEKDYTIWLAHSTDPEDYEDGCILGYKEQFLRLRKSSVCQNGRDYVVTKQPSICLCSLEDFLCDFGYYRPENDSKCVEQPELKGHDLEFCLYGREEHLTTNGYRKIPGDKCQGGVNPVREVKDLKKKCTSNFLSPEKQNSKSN
Assay: 3H-neurotensin-binding sortilin scintillation proximity assay (SPA)
Details: 150 nM sortilin, 5 nM 3H-neurotensin; averages of at least four determinations; read-out: IC50 (displacement of 3H-neurotensin binding to sortilin)

>  <Compound>
Cc1cc(=O)oc2c(CNC(C(=O)O)C(C)C)c(O)ccc12 (centres unmarked)

>  <Result Operator>
>

>  <IC50 (µM)>
50

$$$$
>  <Compound>
Cc1cc(=O)oc2c(CN[C@H](CC(C)C)C(=O)O)c(O)ccc12

>  <Result Operator>
>

>  <IC50 (µM)>
50

$$$$
>  <Compound>
Cc1cc(=O)oc2c(CN[C@@H](CC(C)C)C(=O)O)c(O)ccc12

>  <Result Operator>
=

>  <IC50 (µM)>
4.4

$$$$
>  <Compound>
Cc1cc(=O)oc2c(CNC(C)C(=O)O)c(O)ccc12 (centres unmarked)

>  <Result Operator>
>

>  <IC50 (µM)>
50

$$$$
>  <Compound>
Cc1cc(=O)oc2c(CNC(C(=O)O)C3CCCCC3)c(O)ccc12 (centres unmarked)

>  <Result Operator>
=

>  <IC50 (µM)>
1.7

$$$$
